Hey, just so you know, these numbers are from PubChem BioAssay AID1347075.

Assay: qHTS assay for MDR1-selective chemotherapeutics: Primary screen using the parental adenocarcinoma cell KB-3-1; also: nearly all actives have a fitted effect of over 60% in size
Details: KB-3-1 viability, CellTiter-Glo ATP luminescence, 72 h; series mostly up to 46.1 µM
Out of some 400,000 compounds screened, about 5,500 (1.4%) were called active. About 9% were inconclusive and are not listed. Calls follow the shape of the dose curve; as a rule, active = well fitted cell-killing curve with a large enough effect; inconclusive = small, poorly fitted or top-dose-only effect, or effect the other way; inactive = flat fitted curve, though single readings scatter. For the sample, actives were picked, then their nearest neighbours and some compounds at random.
Pick one: 1 for active, -1 for inactive

Some solved entries appear below for comparison.
SMILES REPR | ASSIGNED CATEGORY
CCN1/C(=C\c2ccc3ccccc3[n+]2CC)Sc2cc(C)ccc21 | 1
COC(=O)c1ccc(NC(=O)c2cnn(-c3ccc(Cl)cc3)c2C2CCN(C(=O)OC(C)(C)C)CC2)cc1 | -1
CCN(C(=O)c1sc2cc(OC)ccc2c1Cl)c1ccccc1 | 1
COc1cccc(C(=O)NCc2ccc3c(c2)CCN3C(=O)c2ccncc2)c1 | -1

So what was the verdict on `CCN1/C(=C/c2ccc3ccc(C)cc3[n+]2CC)Sc2ccccc21` in this test?
1

So what was the verdict on `CCc1ccccc1NS(=O)(=O)c1ccc2nc(-c3ccccc3)[nH]c2c1` in this test?
-1

* * *

Assay: qHTS assay for MDR1-selective chemotherapeutics: Primary screen using the parental adenocarcinoma cell KB-3-1; also: nearly all actives have a fitted effect of over 60% in size
Conditions: KB-3-1 viability, CellTiter-Glo ATP luminescence, 72 h; series mostly up to 46.1 µM
In all, about 400,000 compounds went through this assay and about 5,500 (1.4%) were called active. Roughly 9% stayed inconclusive and do not appear here. Calls follow the shape of the dose curve; as a rule, active = well fitted cell-killing curve with a large enough effect; inconclusive = small, poorly fitted or top-dose-only effect, or effect the other way; inactive = flat fitted curve, though single readings scatter. What follows is part of a selection rich in actives, with near analogues and random picks from the rest.
Pick one: true (1) for active, false (0) for inactive

Some solved entries appear below for comparison.
MOLECULE | ASSIGNED CATEGORY
O=C(COC(=O)c1ccccc1O)NCc1ccco1 | false (0)
Cc1c(C(=O)Nc2ccccc2)sc2nc3n(c(=O)c12)CCCCC3 | false (0)
CCn1c(=O)c(=O)n(CC)c2cc(S(=O)(=O)N3CCc4ccccc43)ccc21 | true (1)
COc1cc(C(=O)NCc2ccncc2)cc(Br)c1OCc1ccccc1 | false (0)
O=C(COC(=O)c1cnc(Cl)c(Cl)c1)NCc1ccco1 | false (0)

So what was the verdict on `O=C(O)COc1ccc(/C=N/O)cc1Br` in this test?
false (0)

So what was the verdict on `Cc1cc(C(=O)OCC(=O)NCc2ccco2)c(C)n1-c1ccccc1` in this test?
true (1)

So what was the verdict on `COCCn1c(SCC(=O)c2cc(C)ccc2C)nc2cc(C(=O)NC3CCCC3)ccc2c1=O` in this test?
false (0)

So what was the verdict on `c1ccc(-c2cc(N3CCCCC3)c3ccccc3n2)cc1` in this test?
false (0)

So what was the verdict on `CSc1ccccc1NC(=O)c1cc(Cl)sc1Cl` in this test?
false (0)

So what was the verdict on COc1ccccc1NC(=O)c1cc(N2C(=O)C3C4CCC(C4)C3C2=O)ccc1Cl (stereo unspecified) in this test?
false (0)

* * *

Experiment: qHTS assay for MDR1-selective chemotherapeutics: Primary screen using the parental adenocarcinoma cell KB-3-1; also: nearly all actives have a fitted effect of over 60% in size
Conditions: KB-3-1 viability, CellTiter-Glo ATP luminescence, 72 h; series mostly up to 46.1 µM
About 5,500 (1.4%) of roughly 400,000 compounds were called active. Inconclusive results (about 9%) are left out. The call rests on the fitted dose curve; in most records, active means well fitted cell-killing curve with a large enough effect; inconclusive means small, poorly fitted or top-dose-only effect, or effect the other way; inactive means flat fitted curve, though single readings scatter. This is one part of a sample in which actives are shown more often than they occur.
Pick one: True (active), False (inactive)

Some solved entries appear below for comparison.
COMPOUND | ASSIGNED CATEGORY
Cc1ccc(S(=O)(=O)N(CC(=O)Nc2cccc([N+](=O)[O-])c2)Cc2ccc(Cl)cc2)cc1 | False
CCOc1ccc(NC(=O)CCC(=O)N2CC(C)Oc3ccc(C)cc32)cc1 (stereo not given) | False

Then there is this compound:
So what was the verdict on `Cc1cc2ccccc2n1CCNC(=O)c1ccc(F)cc1` in this test?
False
